Experiment: Isothermal titration calorimetry, binding to polyP
Settings: P45; HEPES, 10 mM NaCl, pH 7.4, 25° C.

# Smiles record, Kd, mM
records = [
    ("CN(C)CCN(C)CCN(C)C", 7),
]
